CLint scaled at 0.5 h, 0.5 µM values, listed per item
Experiment: in vitro
Details: mouse, liver microsomes
Description: Metabolic stability in mouse liver microsomes assessed as intrinsic clearance at 0.5 uM incubated for 30 mins by LC-MS/MS analysis
Return type: number; implicit unit mL/min/kg.

Task: Consider the molecule shown here: CC(C)c1cc(C(=O)N2CC=C(c3cc4ncccc4[nH]3)CC2)on1 What is its recorded CLint scaled at 0.5 h, 0.5 µM?
Result: 2650

Task: Consider the molecule shown here: O=C(CCc1nc2ncc(Cl)cc2[nH]1)Nc1ccccc1 What is its recorded CLint scaled at 0.5 h, 0.5 µM?
Result: 516

Task: Consider the molecule shown here: O=C(c1ccccc1)N1CCCC(c2cc3ncccc3[nH]2)C1 (stereo unspecified) What is its recorded CLint scaled at 0.5 h, 0.5 µM?
Result: 2360

Task: Consider the molecule shown here: O=C1c2ccccc2CN1CCc1cc2ncccc2[nH]1 What is its recorded CLint scaled at 0.5 h, 0.5 µM?
Result: 1090

Task: Consider the molecule shown here: O=C(c1ccccc1)N1CC=C(c2cc3ncccc3[nH]2)CC1 What is its recorded CLint scaled at 0.5 h, 0.5 µM?
Result: 1310

Task: Consider the molecule shown here: O=C(c1cc(C(F)(F)F)n[nH]1)N1CCCC(c2cc3ncccc3[nH]2)C1 (stereo unspecified) What is its recorded CLint scaled at 0.5 h, 0.5 µM?
Result: 832

====

Assay: in vitro
Settings: human, liver microsomes
Description: Metabolic stability in human liver microsomes assessed as intrinsic clearance at 0.5 uM incubated for 30 mins by LC-MS/MS analysis
Experimental Readout: CLint scaled at 0.5 h, 0.5 µM (mL/min/kg)
Return type: number; implicit unit mL/min/kg.

- Compound: "O=C(c1cc(C(F)(F)F)no1)N1CCCC(c2cc3ncccc3[nH]2)C1 (stereo not drawn)"
  CLint scaled at 0.5 h, 0.5 µM [mL/min/kg]: 323
- Compound: "Cn1nccc1C(=O)N1CCCC(c2cc3ncccc3[nH]2)C1 (stereo not drawn)"
  CLint scaled at 0.5 h, 0.5 µM [mL/min/kg]: 33.5
- Compound: "O=C(c1ccc(F)cc1)N1CCCC(c2cc3nc(Cl)ccc3[nH]2)C1 (stereo not drawn)"
  CLint scaled at 0.5 h, 0.5 µM [mL/min/kg]: 125
- Compound: "CC(C)c1cc(C(=O)N2CCC(O)(c3cc4ncccc4[nH]3)CC2)on1"
  CLint scaled at 0.5 h, 0.5 µM [mL/min/kg]: 40.7
- Compound: "CN(CC(O)c1cc2ncccc2n1S(=O)(=O)c1ccccc1)C(=O)c1ccccc1 (stereo not drawn)"
  CLint scaled at 0.5 h, 0.5 µM [mL/min/kg]: 223

Task: Consider the compound shown here: COc1ccc(Cl)cc1C(=O)N1CCCC(c2cc3ncccc3[nH]2)C1 (stereo not drawn) What is its recorded CLint scaled at 0.5 h, 0.5 µM?
Result: 207

Task: Consider the compound shown here: O=C(c1cc(C2CC2)on1)N1CCCC(c2cc3ncccc3[nH]2)C1 (stereo not drawn) What is its recorded CLint scaled at 0.5 h, 0.5 µM?
Result: 32.7

Task: Consider the compound shown here: CC(C)c1cc(C(=O)N2CCCC(c3cc4ncccc4[nH]3)C2)on1 (stereo not drawn) What is its recorded CLint scaled at 0.5 h, 0.5 µM?
Result: 67.8

====

Papp B→A values, listed per item
Assay: in vitro
Details: dog, MDCK
Description: Apparent permeability across basolateral to apical side in MDCK cells
Return type: number; implicit unit ×10⁻⁶ cm/s.

- Compound: "CC(C)c1cc(C(=O)N2CC=C(c3cc4ncccc4[nH]3)CC2)on1"
  Papp B→A, ×10⁻⁶ cm/s: 15.3

Now look at this entry.
Task: Consider the compound shown here: CC(C)c1cc(C(=O)N2CCCC(c3cc4ncccc4[nH]3)C2)on1 (configuration not stated) What is its recorded Papp B→A?
Result: 33.2
